System: PC-3 [JPC-3]
Assay: relative viability (nuclei count vs DMSO), 5 days (fraction); higher = more cells survive
Details: first compound 0.02 µM
Quantity: relative viability

1) CC(=O)O[C@@]12CO[C@@H]1C[C@H](O)[C@@]1(C)C(=O)[C@H](O)C3=C(C)[C@@H](OC(=O)[C@H](O)[C@@H](NC(=O)OC(C)(C)C)c4ccccc4)C[C@@](O)([C@@H](OC(=O)c4ccccc4)[C@H]21)C3(C)C [Docetaxel] + CC(=O)c1c(C)c2cnc(Nc3ccc(N4CCNCC4)cn3)nc2n(C2CCCC2)c1=O [Palbociclib] (partner 0.5 µM) = 0.422
2) CC(=O)O[C@@]12CO[C@@H]1C[C@H](O)[C@@]1(C)C(=O)[C@H](O)C3=C(C)[C@@H](OC(=O)[C@H](O)[C@@H](NC(=O)OC(C)(C)C)c4ccccc4)C[C@@](O)([C@@H](OC(=O)c4ccccc4)[C@H]21)C3(C)C [Docetaxel] + Cc1cc(Nc2cc(N3CCN(C)CC3)nc(Sc3ccc(NC(=O)C4CC4)cc3)n2)n[nH]1 [Tozasertib] (partner 0.1 µM) = 0.118
3) CC(=O)O[C@@]12CO[C@@H]1C[C@H](O)[C@@]1(C)C(=O)[C@H](O)C3=C(C)[C@@H](OC(=O)[C@H](O)[C@@H](NC(=O)OC(C)(C)C)c4ccccc4)C[C@@](O)([C@@H](OC(=O)c4ccccc4)[C@H]21)C3(C)C [Docetaxel] + CC(C)C[C@H](NC(=O)[C@H](Cc1ccccc1)NC(=O)c1cnccn1)B(O)O [Bortezomib] (partner 0.002 µM) = 0.193

###

System: NCI-H647
Assay: relative viability (nuclei count vs DMSO), 5 days (fraction); higher = more cells survive
Conditions: first compound 500 µM
// values below are reported relative viability
Quantity: relative viability

1) O=C(O)CCCCC(CCSCc1ccccc1)SCc1ccccc1 (stereo not given) [CPI-613] + Cc1cc(Nc2cc(N3CCN(C)CC3)nc(Sc3ccc(NC(=O)C4CC4)cc3)n2)n[nH]1 [Tozasertib] (partner 0.1 µM) = 0.021
2) O=C(O)CCCCC(CCSCc1ccccc1)SCc1ccccc1 (stereo not given) [CPI-613] + CS(=O)(=O)CCNCc1ccc(-c2ccc3ncnc(Nc4ccc(OCc5cccc(F)c5)c(Cl)c4)c3c2)o1 [Lapatinib] (partner 2 µM) = 0.0102
3) O=C(O)CCCCC(CCSCc1ccccc1)SCc1ccccc1 (stereo not given) [CPI-613] + CS(=O)(=O)N1CCN(Cc2cc3nc(-c4cccc5[nH]ncc45)nc(N4CCOCC4)c3s2)CC1 [Pictilisib] (partner 1 µM) = 0.412
4) O=C(O)CCCCC(CCSCc1ccccc1)SCc1ccccc1 (stereo not given) [CPI-613] + NC(=O)Nc1cc(-c2cccc(F)c2)sc1C(=O)N[C@H]1CCCNC1 [AZD7762] (partner 0.2 µM) = 0.343
5) O=C(O)CCCCC(CCSCc1ccccc1)SCc1ccccc1 (stereo not given) [CPI-613] + COc1cccc2cc(-c3nc([C@H]4CC[C@H](C(=O)O)CC4)n4ncnc(N)c34)[nH]c12 [OSI-027] (partner 0.5 µM) = 0.0299

###

System: HCC-15
Experiment: relative viability (nuclei count vs DMSO), 5 days (fraction); higher = more cells survive
Details: first compound 0.005 µM
Quantity: relative viability

1) COc1cc2nccc(Oc3ccc(NC(=O)Nc4cc(C)on4)c(Cl)c3)c2cc1OC [Tivozanib] + Cc1nc(NC(=O)N2CCC[C@H]2C(N)=O)sc1-c1ccnc(C(C)(C)C(F)(F)F)c1 [Alpelisib] (partner 2 µM) = 0.917
2) Nc1ccn([C@@H]2O[C@H](CO)[C@@H](O)[C@@H]2O)c(=O)n1 [Cytarabine] + Nc1nc2[nH]cc(CCc3ccc(C(=O)N[C@@H](CCC(=O)O)C(=O)O)cc3)c2c(=O)[nH]1 [Pemetrexed] (partner 0.2 µM) = 0.249
3) Nc1ccn([C@@H]2O[C@H](CO)[C@@H](O)[C@@H]2O)c(=O)n1 [Cytarabine] + N=C(N)NC(=N)NCCc1ccccc1 [Phenformin] (partner 250 µM) = 0.454
4) Nc1ccn([C@@H]2O[C@H](CO)[C@@H](O)[C@@H]2O)c(=O)n1 [Cytarabine] + C[C@@H](Oc1cc(-c2cnn(C3CCNCC3)c2)cnc1N)c1c(Cl)ccc(F)c1Cl [Crizotinib] (partner 1 µM) = 0.765
5) Nc1ccn([C@@H]2O[C@H](CO)[C@@H](O)[C@@H]2O)c(=O)n1 [Cytarabine] + O=C(CCCCCCC(=O)Nc1ccccc1)NO [Vorinostat] (partner 1 µM) = 0.856
6) Nc1ccn([C@@H]2O[C@H](CO)[C@@H](O)[C@@H]2O)c(=O)n1 [Cytarabine] + Cc1nc(NC(=O)N2CCC[C@H]2C(N)=O)sc1-c1ccnc(C(C)(C)C(F)(F)F)c1 [Alpelisib] (partner 2 µM) = 0.832
7) Nc1ccn([C@@H]2O[C@H](CO)[C@@H](O)[C@@H]2O)c(=O)n1 [Cytarabine] + Cc1cc(Nc2cc(N3CCN(C)CC3)nc(Sc3ccc(NC(=O)C4CC4)cc3)n2)n[nH]1 [Tozasertib] (partner 0.1 µM) = 0.413
8) Nc1ccn([C@@H]2O[C@H](CO)[C@@H](O)[C@@H]2O)c(=O)n1 [Cytarabine] + O=C(c1cc(Cc2n[nH]c(=O)c3ccccc23)ccc1F)N1CCN(C(=O)C2CC2)CC1 [Olaparib] (partner 8 µM) = 0.706
9) Nc1ccn([C@@H]2O[C@H](CO)[C@@H](O)[C@@H]2O)c(=O)n1 [Cytarabine] + C[C@]1(O)C[C@@H](c2nc(-c3ccc4ccc(-c5ccccc5)nc4c3)c3c(N)nccn32)C1 [Linsitinib] (partner 1 µM) = 0.902

###

System: NCI-H2347
Test: relative viability (nuclei count vs DMSO), 5 days (fraction); higher = more cells survive
Settings: first compound 500 µM
Please assign f whenever relative viability is at or above 0.4, and t whenever it is below.

1. O=C(O)CCCCC(CCSCc1ccccc1)SCc1ccccc1 (stereo not given) [CPI-613] + CS(=O)(=O)N1CCN(Cc2cc3nc(-c4cccc5[nH]ncc45)nc(N4CCOCC4)c3s2)CC1 [Pictilisib] (partner 1 µM) = t
2. O=C(O)CCCCC(CCSCc1ccccc1)SCc1ccccc1 (stereo not given) [CPI-613] + CC(=O)c1c(C)c2cnc(Nc3ccc(N4CCNCC4)cn3)nc2n(C2CCCC2)c1=O [Palbociclib] (partner 0.5 µM) = t
3. O=C(O)CCCCC(CCSCc1ccccc1)SCc1ccccc1 (stereo not given) [CPI-613] + Nc1nc2[nH]cc(CCc3ccc(C(=O)N[C@@H](CCC(=O)O)C(=O)O)cc3)c2c(=O)[nH]1 [Pemetrexed] (partner 0.2 µM) = f
4. O=C(O)CCCCC(CCSCc1ccccc1)SCc1ccccc1 (stereo not given) [CPI-613] + N=C(N)NC(=N)NCCc1ccccc1 [Phenformin] (partner 250 µM) = t
5. O=C(O)CCCCC(CCSCc1ccccc1)SCc1ccccc1 (stereo not given) [CPI-613] + CS(=O)(=O)CCNCc1ccc(-c2ccc3ncnc(Nc4ccc(OCc5cccc(F)c5)c(Cl)c4)c3c2)o1 [Lapatinib] (partner 2 µM) = f

###

// values below are reported relative viability
Tested on: NCI-H661
Assay: relative viability (nuclei count vs DMSO), 5 days (fraction); higher = more cells survive
Conditions: first compound 0.08 µM
Quantity: relative viability

1) O=c1[nH]c2ccccc2n1C1CCN(CCCC(c2ccc(F)cc2)c2ccc(F)cc2)CC1 [Pimozide] + Cc1cc(Nc2cc(N3CCN(C)CC3)nc(Sc3ccc(NC(=O)C4CC4)cc3)n2)n[nH]1 [Tozasertib] (partner 0.1 µM) = 0.354
2) Cc1cnc(-c2cnc(NCCNc3ccc(C#N)cn3)nc2-c2ccc(Cl)cc2Cl)[nH]1 + CC(=O)Nc1cccc(-n2c(=O)n(C3CC3)c(=O)c3c(Nc4ccc(I)cc4F)n(C)c(=O)c(C)c32)c1 [Trametinib] (partner 0.02 µM) = 0.606

###

Test system: NCI-H2023
Test: relative viability (nuclei count vs DMSO), 5 days (fraction); higher = more cells survive
Details: first compound 0.000632 µM
// values below are reported relative viability
Quantity: relative viability

1. CC(=O)O[C@@]12CO[C@@H]1C[C@H](O)[C@@]1(C)C(=O)[C@H](O)C3=C(C)[C@@H](OC(=O)[C@H](O)[C@@H](NC(=O)OC(C)(C)C)c4ccccc4)C[C@@](O)([C@@H](OC(=O)c4ccccc4)[C@H]21)C3(C)C [Docetaxel] + COc1cccc2cc(-c3nc([C@H]4CC[C@H](C(=O)O)CC4)n4ncnc(N)c34)[nH]c12 [OSI-027] (partner 0.5 µM) = 0.339
2. CC(=O)O[C@@]12CO[C@@H]1C[C@H](O)[C@@]1(C)C(=O)[C@H](O)C3=C(C)[C@@H](OC(=O)[C@H](O)[C@@H](NC(=O)OC(C)(C)C)c4ccccc4)C[C@@](O)([C@@H](OC(=O)c4ccccc4)[C@H]21)C3(C)C [Docetaxel] + CC(=O)Nc1cccc(-n2c(=O)n(C3CC3)c(=O)c3c(Nc4ccc(I)cc4F)n(C)c(=O)c(C)c32)c1 [Trametinib] (partner 0.02 µM) = 0.521
